system: U2OS; assay: cell viability relative to DMSO; higher = less toxic; settings: 72 h; 1000 nM
Where a name gives a salt, the structure may show the parent alone.
measured.quantity: cell viability (%)
Give just the number in %; leave the unit off.

Q: What cell viability appears in the records for this molecule with U2OS? CC1(C)CCC[C@]2(C)[C@H]3CC(=O)O[C@]3(C)CC[C@@H]12 [Sclareolide (Norambreinolide)]
A: 99.5

Q: Requested read-out cell viability, target or system U2OS, entry CC1(C)S[C@@H]2[C@H](NC(=O)Cc3ccccc3)C(=O)N2[C@H]1C(=O)O [benzylpenicillin]
A: 104

Q: Any idea what cell viability came out for Nc1nc(=O)[nH]cc1F [flucytosine] on U2OS?
A: 97.9

Q: Form field - read-out: cell viability; system: U2OS; submitted item: Cc1cnc(-c2ccccc2C(C)C)nc1NCc1ccc(-n2ccnn2)cc1 [ML323]
A: 102

Q: # value lookup — system U2OS, readout cell viability, item CN1CCCN(C(c2ccccc2)c2ccc(Cl)cc2)CC1 (configuration not stated) [homochlorcyclizine]
A: 99.2

Q: U2OS / cell viability / O=C(c1ccc2nccnc2c1)N1CCCCC1 [ampalex] : value?
A: 99.7

Q: Record lookup: for U2OS, what cell viability belongs to COC(=O)C(c1ccccc1)C1CCCCN1 (configuration not stated) [METHYLPHENIDATE HYDROCHLORIDE] ?
A: 95.3

Q: // fetch U2OS cell viability for CCCCOC(=O)c1cc2c(cn1)[nH]c1ccccc12 [beta-CCB]
A: 105

Q: Lookup: cell viability / U2OS / CCCOC(C(=O)OC1CCN(C)CC1)(c1ccccc1)c1ccccc1 [propiverine]
A: 97.8

Q: Short answer please: cell viability, U2OS, entry Cc1ccc(S(=O)(=O)NC2c3ccccc3Oc3ccccc32)cc1 [AH-7614]
A: 102

Q: Which measured cell viability belongs to N[C@H](Cc1c[nH]cn1)C(=O)O [copper-histidine] , tested on U2OS?
A: 97.3

Q: Which cell viability is reported with U2OS for this entry: O=C1NC(=O)C(c2ccccc2)(c2ccccc2)N1 [phenytoin] ?
A: 101

---

Would you kindly list drug sensitivity score for each of these compounds?
system: Calu-3; test: drug sensitivity score (DSS) for viability; higher = more toxic; extreme values may be limits of the assay; details: 72 h
Lab note: jot the number down without any unit.

Q: // query drug sensitivity score value for entry CCN(CC)CCOC(=O)C(c1ccccc1)c1ccccc1 [adiphenine]
A: 0

Q: Please look up its drug sensitivity score: CC(C)C[C@H](NC(=O)[C@H](CCc1ccccc1)NC(=O)CN1CCOCC1)C(=O)N[C@@H](Cc1ccccc1)C(=O)N[C@@H](CC(C)C)C(=O)[C@@]1(C)CO1 [carfilzomib]
A: 30.9

Q: Please look up its drug sensitivity score: CC1(C)S[C@@H]2[C@H](NC(=O)Cc3ccccc3)C(=O)N2[C@H]1C(=O)O [benzylpenicillin]
A: 0

Q: Which drug sensitivity score value belongs to CN1C(C(=O)Nc2ccccn2)=C(O)c2sc(Cl)cc2S1(=O)=O [lornoxicam] ?
A: 0

---

What drug sensitivity score was measured for each of the following?
system: Calu-3; experiment: drug sensitivity score (DSS) for viability; higher = more toxic; extreme values may be limits of the assay; details: 72 h
# respond with the number and nothing more

Q: Need drug sensitivity score, item COc1ccc(/C=C/C(=O)O)cc1 [trans-4-methoxycinnamic-acid]
A: 0

Q: Query (compound): CCC(c1ccccc1)c1c(O)c2ccccc2oc1=O (centres undefined) ; field requested: drug sensitivity score
A: 0

Q: Consider the compound CCCCCOc1ccc(-c2ccc(-c3ccc(C(=O)N[C@H]4C[C@@H](O)[C@@H](O)NC(=O)[C@@H]5[C@@H](O)[C@@H](C)CN5C(=O)[C@H]([C@@H](C)O)NC(=O)[C@H]([C@H](O)[C@@H](O)c5ccc(O)cc5)NC(=O)[C@@H]5C[C@@H](O)CN5C(=O)[C@H]([C@@H](C)O)NC4=O)cc3)cc2)cc1 and give its measured drug sensitivity score.
A: 0.5

Q: Would you kindly share the measured drug sensitivity score for C[N@+]1(CC2CC2)CC[C@]23c4c5ccc(O)c4O[C@H]2C(=O)CC[C@@]3(O)[C@H]1C5 [methylnaltrexone] ?
A: 0
